# tested-on: Man(a1-3)[Man(a1-6)]Man
# experiment: glycan array binding signal (z-score within array); higher = stronger binding
# run-conditions: glycan notation: IUPAC condensed, linker removed
The sample as a whole holds a higher share of the strongest signals than the screen did.
I'd be grateful if you could share measured glycan array binding signal (z-score) for these entries.

Give a short answer stating reported glycan array binding signal (z-score) for FliC (Clostridium difficile) (protein) MRVNTNVSALIANNQMGRNVNGQSKSMEKLSSGVRIKRAADDAAGLAISEKMRAQIKGLDQAGRNVQDGISVVQTAEGSLEETGNILQRMRTLSLQSANEINNTEEREKIADELTQLKDEIERISSSTEFNGKKLLDGTSSTIRLQVGASYGTNVSGTSNNNNEIKIQLVNTASIMASAGITTASIGSMKAGGTTGTDAAKTMVSSLDAALKSLNSSRAKLGAQQNRLESTQNNLNNTLENVTAAESRIRDTDVASEMVNLSKMNILVQASQSMLAQANQQPQGVLQLLG . -0.471

Give a short answer stating reported glycan array binding signal (z-score) for BIp1-His (Cryptococcus neoformans) (protein) MFTKIFVALFAATAVLSAPVESAEKRITHTGRATFYSPSVGIGACGWQNTDEELVVALNAPQYALNADHNCGQSVRITNEQNGNQEIAKVVDLCPGCNDGDLDMSPALFGALNNNDFDQGVFPISWNFLPRDDTSSSN . 0.728

Give a short answer stating reported glycan array binding signal (z-score) for RS2L (Ralstonia solanacearum), B5RXL5_RALSO (protein) MAQQGVFTLPANTSFGVTAFANAANTQTIQVLVDNVVKATFTGSGTSDKLLGSQVLNSGSGAIKIQVSVNGKPSDLVSNQTILANKLNFAMVGSEDGTDNDYNDGIAVLNWPLG . 7.32
